Assay: in vitro
Design: species or system CCD841, HEK293
Reported Conditions: human, hb2 cells, read-out: HB-2 Cells Viability (%)
The following molecules are shown together with reported viability at 48 h, 10 µM values.
Give the number; % is assumed, so skip it.

// below: answered molecules
| Molecule | Result Unit | Value Measured |
| --- | --- | --- |
| C=CC(=O)NCc1cc2sccc2s1 | % | 98.7 |
| Cc1ccc(NC(=O)CCl)c(Br)c1 | % | 49.2 |
| O=C(CCl)Nc1nc(-c2ccc(F)c(F)c2)cs1 | % | 6.9 |
| O=C(CCl)Nc1nc(-c2cccs2)cs1 | % | 39.8 |
| CC(NC(=O)CCl)c1cccs1 (stereo not shown) | % | 93.5 |

Any idea what its viability at 48 h, 10 µM is? The molecule is "O=C(CCl)NNC(=O)C1CC1"
93.1

"CCc1sc(C(=O)NNC(=O)CCl)cc1C" , same question.
70.4

* * *

Assay: in vitro
Parameters: species or system HB2, CCD841
Reported Conditions: human, hek293 cells
Label key: Criterion met means viability at 48 h, 10 µM under 50%; Criterion not met means viability at 48 h, 10 µM of 50% or more.

Use these answered entries as a reference point.
| Molecule | Discrete Label |
| --- | --- |
| CN(C)C(=O)c1ccc(NC(=O)CCl)cc1 [PCM-0102877] | Criterion met |
| C=CC(=O)N1CCC(CN2C(=O)CNC2=O)C1 (stereo not shown) [PCM-0102488] | Criterion not met |
| O=C(CCl)NC1(c2ccccc2)CCC1 [PCM-0102935] | Criterion not met |
| CC1CC(C)CN(C(=O)CCl)C1 (stereo not shown) [PCM-0102789] | Criterion not met |

Moving on to the next molecule.
Bench note: check whether C=CC(=O)N1CCCC(c2nc(C(F)(F)F)cn2C)C1 (stereo not shown) [PCM-0102633] shows viability at 48 h, 10 µM below 50%
Criterion not met

* * *

Assayed System: OTUB2 (OTUB2A) (Homo sapiens)
Construct: full length residues 1-234, E. coli BL21(DE3)-R3, His tag removed by TEV, construct 27312 Da
Sequence (Q96DC9 1-234): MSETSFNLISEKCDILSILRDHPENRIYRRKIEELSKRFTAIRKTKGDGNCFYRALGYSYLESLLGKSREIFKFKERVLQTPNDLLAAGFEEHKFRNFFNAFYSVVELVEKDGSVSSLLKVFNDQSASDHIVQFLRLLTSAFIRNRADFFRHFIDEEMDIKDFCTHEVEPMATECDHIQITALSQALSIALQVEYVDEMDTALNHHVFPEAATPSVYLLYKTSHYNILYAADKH
Design: Intact protein LC/MS covalent labelling, fragments in pools of five, 200 uM each, 4 °C
Reported Conditions: 24 h, 4 °C, pool of five; 200 µM; covalent
The following compounds are shown together with reported OTUB2 values.
Lab note: record the figure alone, no unit after it.

| Compound | Assayed System | Value Measured |
| --- | --- | --- |
| O=C(CCl)N1CCOC(c2ccc(F)cc2)C1 (stereo not drawn) [PCM-0102615] | OTUB2 (OTUB2A) (Homo sapiens) | 0 |
| C=CC(=O)Nc1ccc(N2CCOCC2)cc1 [PCM-0102551] | OTUB2 (OTUB2A) (Homo sapiens) | 0 |
| C=CC(=O)N1C(C)CNCC1C.O=C(O)C(F)(F)F (stereo not drawn) [PCM-0102447] | OTUB2 (OTUB2A) (Homo sapiens) | 0 |
| Cc1cc(NC(=O)CCl)n(-c2ccccc2F)n1 [PCM-0103066] | OTUB2 (OTUB2A) (Homo sapiens) | 0.44 |
| Cc1nn(-c2ccccc2)c(C)c1NC(=O)CCl [PCM-0102501] | OTUB2 (OTUB2A) (Homo sapiens) | 0.09 |
| O=C(CCl)Nc1ccc([N+](=O)[O-])cc1Br [PCM-0102848] | OTUB2 (OTUB2A) (Homo sapiens) | 0 |

Any idea what its OTUB2 is? The compound is COC(=O)C1(NC(=O)CCl)CCCCC1 [PCM-0102734]
0

Cc1ccc(N(C(=O)CCl)C2C=CS(=O)(=O)C2)cc1 (stereo not drawn) [PCM-0102539] , same question.
0.16

CN1CCN(C(=O)CCl)CC1 [PCM-0102921] , same question.
0

Recorded values, source paper PMC6556873.
